- assaySystem: human gpr-54 receptor (human, UniProt Q969F8 1-398)
- Sequence (Q969F8 whole entry): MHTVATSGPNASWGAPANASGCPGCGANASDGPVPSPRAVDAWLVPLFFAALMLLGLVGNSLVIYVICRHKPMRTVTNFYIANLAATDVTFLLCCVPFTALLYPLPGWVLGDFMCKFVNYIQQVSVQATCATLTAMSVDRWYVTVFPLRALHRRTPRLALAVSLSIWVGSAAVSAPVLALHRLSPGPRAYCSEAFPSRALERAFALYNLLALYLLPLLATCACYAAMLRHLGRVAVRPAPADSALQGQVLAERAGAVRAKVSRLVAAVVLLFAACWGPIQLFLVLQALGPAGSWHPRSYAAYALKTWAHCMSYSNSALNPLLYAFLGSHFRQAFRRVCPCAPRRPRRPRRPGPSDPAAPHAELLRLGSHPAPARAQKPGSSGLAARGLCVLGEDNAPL
- assayExplanation: cell-based or functional assay
Non-standard residues stand in square brackets, D forms with d. No end group written: not given here.
readout: Inhibition of IP stimulation by 10nM Agonist: IC50 (nM)

Here are 3 binders together with their reported answers.
[[record]]
binder = "YNWNG[dF]GLRF-NH2 (N-terminus assumed; SMILES CC(C)C[C@H](NC(=O)CNC(=O)[C@@H](Cc1ccccc1)NC(=O)CNC(=O)[C@H](CC(N)=O)NC(=O)[C@H](Cc1c[nH]c2ccccc12)NC(=O)[C@H](CC(N)=O)NC(=O)[C@@H](N)Cc1ccc(O)cc1)C(=O)N[C@@H](CCCNC(=N)N)C(=O)N[C@@H](Cc1ccccc1)C(N)=O, kisspeptin-10 analogue; also called YNWNG[(D)-F]GLRF) [211]"
measvalue = 1000

[[record]]
binder = "YNWNGFG[dL]RF-NH2 (N-terminus assumed; SMILES CC(C)C[C@@H](NC(=O)CNC(=O)[C@H](Cc1ccccc1)NC(=O)CNC(=O)[C@H](CC(N)=O)NC(=O)[C@H](Cc1c[nH]c2ccccc12)NC(=O)[C@H](CC(N)=O)NC(=O)[C@@H](N)Cc1ccc(O)cc1)C(=O)N[C@@H](CCCNC(=N)N)C(=O)N[C@@H](Cc1ccccc1)C(N)=O, kisspeptin-10 analogue; also called Peptide 209; YNWNGFG[(D)-L]RF) [209]"
measvalue = 100

[[record]]
binder = "Ac-[dA]NWNGFG[dL]RF-NH2 (SMILES CC(=O)N[C@H](C)C(=O)N[C@@H](CC(N)=O)C(=O)N[C@@H](Cc1c[nH]c2ccccc12)C(=O)N[C@@H](CC(N)=O)C(=O)NCC(=O)N[C@@H](Cc1ccccc1)C(=O)NCC(=O)N[C@H](CC(C)C)C(=O)N[C@@H](CCCNC(=N)N)C(=O)N[C@@H](Cc1ccccc1)C(N)=O) [276]"
measvalue = 0.001


1: YNWNGFGLRF-NH2 (kisspeptin-10 analogue) [208]
2: Ac-RRMKWKKY[dA]NWNGFG[dW]RF-NH2 [Peptide 271]
For the pair 1 and 2 , which entry has the numerically smaller recorded Inhibition of IP stimulation by 10nM Agonist: IC50? Mark your selection by writing its label.
2
